- Test system: Rattus norvegicus
- test.description: Hypolipidemic activity was determined in male rats, and high-density lipoprotein level was determined at 20 mg/kg
- Assay type: functional
Kindly state Activity for each of the entries shown.
Provide the reading as a plain figure in %.

Using the record for COC1/C=C/OC2(C)Oc3c(C)c(O)c4c(O)c(c(N5CCC(O)CC5)c(O)c4c3C2=O)NC(=O)/C(C)=C\C=C\C(C)C(O)C(C)C(O)C(C)C(OC(C)=O)C1C (stereo not drawn) , report its Activity.
-3

Using the record for COC1/C=C/OC2(C)Oc3c(C)c(O)c4c(O)c(c(N5CCC(C(N)=O)CC5)c(O)c4c3C2=O)NC(=O)/C(C)=C\C=C\C(C)C(O)C(C)C(O)C(C)C(OC(C)=O)C1C (stereo not drawn) , report its Activity.
-6

Using the record for CCOC(=O)C1CCN(c2c3c(O)c4c(O)c(C)c5c(c4c2O)C(=O)C(C)(O/C=C/C(OC)C(C)C(OC(C)=O)C(C)C(O)C(C)C(O)C(C)/C=C/C=C(/C)C(=O)N3)O5)CC1 (stereo not drawn) , report its Activity.
-16

The measurements presented in this section are drawn from ChEMBL document CHEMBL1125042.
